A collection of compounds and their measured In vitro cell viability (%) (Mean)
tested on: Hep G2 cells; assay: In vitro toxicity: Hep G2 cell viability by CellTiter-Glo; format: cell-based; details: Formulation No. 001, RNA No. 331, 1 μg/mL RNA-LNPs, 72 hours post transfection, cell only = 100%

Compound	Reading Unit	In vitro cell viability (%) (Mean)
CCCCC/C=C\C/C=C\CCCCCCCCOC(=O)NC(COC(=O)NCCN1CCCCCC1)C(=O)OCCCCCC(=O)OCCCCCCCCCCC (stereo not shown) [Lipid 939]	%	95.74
CCCCC/C=C\C/C=C\CCCCCCCCOC(=O)NC(COC(=O)NCCN1CCCCCC1)C(=O)OCCCCCC(=O)OCC(CCCCCCCC)CCCCCCCCCC (stereo not shown) [Lipid 911]	%	81.84
CCCCCCCCCCCOC(=O)NC(COC(=O)NCCN(C)C)C(=O)OCCCCCCCC(=O)OC(CCCCCCCC)CCCCCCCC (stereo not shown) [Lipid 912]	%	92.96
CCCCC/C=C\CCOC(=O)CCCCCOC(=O)C(COC(=O)NCCN1CCCCC1)NC(=O)OCCCCCCCCOC(=O)C(CCCCCC)CCCCCCCC (stereo not shown) [Lipid 954]	%	93.41
CCCCCCCCC(CCCCCC)C(=O)OCCCCCCCCOC(=O)NC(COC(=O)NCCN1CCCCC1)C(=O)OCCCCCCCCCCC(=O)OCCCCCC (stereo not shown) [Lipid 928]	%	95.03
CCCCCCCCC(CCCCCC)C(=O)OCCCCCCCCOC(=O)NC(COC(=O)NCCN1CCCCCC1)C(=O)OCCCCCCCCOC(=O)C(CCCCCC)CCCCCCCC (stereo not shown) [Lipid 889]	%	91.21
CCCCCCCCCC(=O)OCCCCCCCOC(=O)C(COC(=O)NCCN1CCCCCC1)NC(=O)OCCCCCCCCOC(=O)C(CCCCCC)CCCCCCCC (stereo not shown) [Lipid 934]	%	94.29
CCCCC/C=C\C/C=C\CCCCCCCCOC(=O)NC(COC(=O)NCCN1CCCCCC1)C(=O)OCCCCCCCC(=O)OC(CCCCCCCC)CCCCCCCC (stereo not shown) [Lipid 858]	%	92.44
CCCCC/C=C\C/C=C\CCCCCCCCOC(=O)NC(COC(=O)NCCNC)C(=O)OCCCCCC(=O)OCC(CCCCCCCC)CCCCCCCCCC (stereo not shown) [Lipid 907]	%	97.33
CCCCC/C=C\C/C=C\CCCCCCCCOC(=O)NC(COC(=O)NCCN1CCCCCC1)C(=O)OCCCCCCCOC(=O)CCCCCCCCC (stereo not shown) [Lipid 944]	%	95.62

====

test system: Balb/c mice; experiment: In vivo expression by IV, 0.05 mg/kg luciferase RNA-LNPs, IVIS luminescence; details: Formulation No. 001, RNA No. 331; female Balb/c mice, 0.05 mg*kg−1 intravenous, 24-hours post injection
Measured Property: Whole body (p/s) (Mean)

> print(dat)
                                   compound        measured.property  data.value
1  CCCCCCCCC(CCCCCC)C(=O)OCCCCCCCCOC(=O)NC(COC(=O)NCCN1CCCCC1)C(=O)OCCCCCCCCOC(=O)C(CCCCCC)CCCCCCCC (stereo not shown)  Whole body (p/s) (Mean)    1.35E+09
2  CCCCCCCC/C=C\CCCCCCCC(=O)NC(COC(=O)NCCN1CCCCC1)C(=O)OCCCCCCCC(=O)OC(CCCCCCCC)CCCCCCCC (stereo not shown)  Whole body (p/s) (Mean)    2.08E+09
3  CCCCC/C=C\C/C=C\CCCCCCCCOC(=O)NC(COC(=O)NCCNC)C(=O)OCCCCCC(=O)OCC(CCCCCCCC)CCCCCCCCCC (stereo not shown)  Whole body (p/s) (Mean)    1.18E+09
4  CCCCC/C=C\C/C=C\CCCCCCCCOC(=O)NC(COC(=O)NCCN1CCCCCC1)C(=O)OCCCCCCCCOC(=O)C(CCCCCC)CCCCCCCC (stereo not shown)  Whole body (p/s) (Mean)    1.18E+09
5  CCCCC/C=C\C/C=C\CCCCCCCCOC(=O)NC(COC(=O)NCCN1CCCCCC1)C(=O)OCCCCCCCC(=O)OC(CCCCCCCC)CCCCCCCC (stereo not shown)  Whole body (p/s) (Mean)    8.74E+08
6  CCCCCCCCCC(=O)OCCCCCCCOC(=O)C(COC(=O)NCCN(C)C)NC(=O)OCCCCCCCCOC(=O)C(CCCCCC)CCCCCCCC (stereo not shown)  Whole body (p/s) (Mean)    1.31E+08
7  CCCCCCCCC(CCCCCC)C(=O)OCCCCCCCCOC(=O)NC(COC(=O)NCCN1CCCCC1)C(=O)OCCCCCCCCCCC(=O)OCCCCCC (stereo not shown)  Whole body (p/s) (Mean)    9.65E+08

====

test system: MCP-1; test: In vivo tolerability by IV: serum MCP-1 by Luminex; parameters: species or system C57BL/6J mice; settings: Formulation No. 001, RNA No. 331, male C57BL/6J mice, 1.0 mg*kg/1 intravenous, 24 hours post injection
A collection of compounds and their measured MCP-1 at 24 h
Measured Property: MCP-1 at 24 h (pg/mL)

> print(dat)
                                   compound  assay.system  measured.property  reading.unit  data.value
1  CCCCCCCCCC(=O)OCCCCCCCOC(=O)C(COC(=O)NCCN1CCCCC1)NC(=O)OCCCCCCCCOC(=O)C(CCCCCC)CCCCCCCC (stereo not drawn)         MCP-1      MCP-1 at 24 h         pg/mL         300
2  CCCCCCCCC(CCCCCC)C(=O)OCCCCCCCCOC(=O)NC(COC(=O)NCCN1CCCCCC1)C(=O)OCCCCCCCCOC(=O)C(CCCCCC)CCCCCCCC (stereo not drawn)         MCP-1      MCP-1 at 24 h         pg/mL         286
3  CCCCC/C=C\C/C=C\CCCCCCCCOC(=O)NC(COC(=O)NCCN1CCCCCC1)C(=O)OCCCCCCCOC(=O)CCCCCCCCC (stereo not drawn)         MCP-1      MCP-1 at 24 h         pg/mL         161
4  CCCCC/C=C\C/C=C\CCCCCCCCOC(=O)NC(COC(=O)NCCN1CCCCCC1)C(=O)OCCCCCCCCCC(=O)OCCCCCCC (stereo not drawn)         MCP-1      MCP-1 at 24 h         pg/mL         176
5  CCCCC/C=C\C/C=C\CCCCCCCCOC(=O)NC(COC(=O)NCCN1CCCCCC1)C(=O)OCCCCCC(=O)OCC(CCCCCCCC)CCCCCCCCCC (stereo not drawn)         MCP-1      MCP-1 at 24 h         pg/mL         254
6  CCCCCCCCC(CCCCCC)C(=O)OCCCCCCCCOC(=O)NC(COC(=O)NCCN1CCCCC1)C(=O)OCCCCCCCCCCC(=O)OCCCCCC (stereo not drawn)         MCP-1      MCP-1 at 24 h         pg/mL        74.9
7  CCCCC/C=C\C/C=C\CCCCCCCCOC(=O)C(COC(=O)NCCN1CCCCCC1)NC(=O)OCCCCCCCCOC(=O)C(CCCCCC)CCCCCCCC (stereo not drawn)         MCP-1      MCP-1 at 24 h         pg/mL         256
8  CCCCCCCC/C=C\CCCCCCCC(=O)NC(COC(=O)NCCN1CCCCC1)C(=O)OCCCCCC(=O)OCC(CCCCCCCC)CCCCCCCCCC (stereo not drawn)         MCP-1      MCP-1 at 24 h         pg/mL         216
9  CCCCCCCCCCCOC(=O)NC(COC(=O)NCCN1CCCCC1)C(=O)OCCCCCCCC(=O)OC(CCCCCCCC)CCCCCCCC (stereo not drawn)         MCP-1      MCP-1 at 24 h         pg/mL         148

====

system: IL-6; experiment: In vivo tolerability by IV: serum IL-6 by Luminex; design: species or system C57BL/6J mice; conditions: Formulation No. 001, RNA No. 331, male C57BL/6J mice, 1.0 mg*kg/1 intravenous, 2 hours post injection
Returns one of Yes or No; Yes when IL-6 at 2 h is >= 40 pg/mL.

> print(dat)
                                   compound  discrete.label
1  CCCCCCCCC(CCCCCC)C(=O)OCCCCCCCCOC(=O)NC(COC(=O)NCCN1CCCCCC1)C(=O)OCCCCCCCCCCC(=O)OCCCCCC (stereo not shown)              No
2  CCCCCCCCC(CCCCCC)C(=O)OCCCCCCCCOC(=O)NC(COC(=O)NCCN(C)C)C(=O)OCCCCCCCCOC(=O)C(CCCCCC)CCCCCCCC (stereo not shown)              No
3  CCCCC/C=C\C/C=C\CCCCCCCCOC(=O)NC(COC(=O)NCCN1CCCCCC1)C(=O)OCCCCCCCOC(=O)CCCCCCCCC (stereo not shown)             Yes
4  CCCCCCCCCCCOC(=O)CCCCCOC(=O)C(COC(=O)NCCN1CCCCC1)NC(=O)OCCCCCCCCOC(=O)C(CCCCCC)CCCCCCCC (stereo not shown)              No
5  CCCCC/C=C\CCOC(=O)CCCCCOC(=O)C(COC(=O)NCCN1CCCCCC1)NC(=O)OCCCCCCCCOC(=O)C(CCCCCC)CCCCCCCC (stereo not shown)             Yes
6  CCCCC/C=C\C/C=C\CCCCCCCCOC(=O)NC(COC(=O)NCCN1CCCCCC1)C(=O)OCCCCCC(=O)OCCCCCCCCCCC (stereo not shown)             Yes
